Below is a list of entries, each paired with its recorded viability at 10 µM value.
- System: expanded OPCs
- ASSAY_OVERVIEW: cells
- CONDITION: Rattus norvegicus, 72 h, read-out: 10 µM (% DMSO), alamarBlue viability of expanded OPCs, compound at 10 µM, sheet All Tox data
Structures can show the parent of a compound that is named as a salt. Non-standard residues stand in square brackets, D forms with d. Residues, ends and D or L forms follow the SMILES beside them. pGlu = O=C1CC[C@@H](C(=O)O)N1; Thz = O=C(O)[C@@H]1CSCN1

[
  {
    "COMPOUND": "CCCc1nc(C(C)(C)O)c(C(=O)O)n1Cc1ccc(-c2ccccc2-c2nnn[nH]2)cc1 [Olmesartan]",
    "viability at 10 µM [%]": 93.9
  },
  {
    "COMPOUND": "CN(CCOc1ccc(CC2SC(=O)NC2=O)cc1)c1ccccn1 (centres unmarked) [Rosiglitazone maleate]",
    "viability at 10 µM [%]": 158
  },
  {
    "COMPOUND": "O=c1c(-c2ccccc2)c1-c1ccccc1 [Diphenylcyclopropenone]",
    "viability at 10 µM [%]": 11.7
  },
  {
    "COMPOUND": "[H]/N=C(/NC)NCCC[C@H](N)C(=O)O [L-NMMA]",
    "viability at 10 µM [%]": 93
  },
  {
    "COMPOUND": "C[C@@H](c1ncncc1F)[C@](O)(Cn1cncn1)c1ccc(F)cc1F [Voriconazole]",
    "viability at 10 µM [%]": 96
  },
  {
    "COMPOUND": "Nc1ccn([C@@H]2CS[C@H](CO)O2)c(=O)n1 [Lamivudine]",
    "viability at 10 µM [%]": 113
  },
  {
    "COMPOUND": "COC(=O)Nc1nc2cc(C(=O)c3ccc(F)cc3)ccc2[nH]1 [Flubendazole]",
    "viability at 10 µM [%]": 43.7
  },
  {
    "COMPOUND": "C=CC[C@@H]1/C=C(\\C)C[C@H](C)C[C@H](OC)[C@H]2O[C@@](O)(C(=O)C(=O)N3CCCC[C@H]3C(=O)O[C@H](/C(C)=C/[C@@H]3CC[C@@H](O)[C@H](OC)C3)[C@H](C)[C@@H](O)CC1=O)[C@H](C)C[C@@H]2OC [Tacrolimus]",
    "viability at 10 µM [%]": 109
  },
  {
    "COMPOUND": "C[C@H]1[C@H](OC(=O)CCC(=O)O)O[C@@H]2O[C@@]3(C)CC[C@H]4[C@H](C)CC[C@@H]1[C@@]24OO3 [Artesunate]",
    "viability at 10 µM [%]": 74
  },
  {
    "COMPOUND": "C[N+]1(CCC(C(N)=O)(c2ccccc2)c2ccccc2)CCCCC1 [Fenpiverinium]",
    "viability at 10 µM [%]": 101
  },
  {
    "COMPOUND": "Cc1c(O)c(=O)ccn1C [Deferiprone]",
    "viability at 10 µM [%]": 84.8
  },
  {
    "COMPOUND": "CNC(=C[N+](=O)[O-])NCCSCc1csc(CN(C)C)n1 [Nizatidine]",
    "viability at 10 µM [%]": 96.6
  },
  {
    "COMPOUND": "COc1cc(N)c(Cl)cc1C(=O)NC1CCN(CCCOc2ccc(F)cc2)CC1OC (centres unmarked) [Cisapride]",
    "viability at 10 µM [%]": 73.6
  },
  {
    "COMPOUND": "C[C@]12CC[C@@H]3c4ccc(O)cc4CC[C@H]3[C@@H]1CC[C@@H]2O [Estradiol]",
    "viability at 10 µM [%]": 64.6
  },
  {
    "COMPOUND": "C#C[C@]1(O)CC[C@H]2[C@@H]3CCc4cc(O)ccc4[C@H]3CC[C@@]21C [Ethinyl Estradiol]",
    "viability at 10 µM [%]": 43.9
  },
  {
    "COMPOUND": "CC(C)NCC(O)COc1ccc(COCCOC(C)C)cc1 (centres unmarked) [Bisoprolol]",
    "viability at 10 µM [%]": 96.5
  },
  {
    "COMPOUND": "CC(=O)O[C@]1(C(C)=O)CC[C@H]2[C@@H]3C=C(C)C4=CC(=O)CC[C@]4(C)[C@H]3CC[C@@]21C [Megestrol acetate]",
    "viability at 10 µM [%]": 96.5
  },
  {
    "COMPOUND": "CCCCCCCCCCC[C@@H](C[C@@H]1OC(=O)[C@H]1CCCCCC)OC(=O)[C@H](CC(C)C)NC=O [Orlistat]",
    "viability at 10 µM [%]": 12.5
  },
  {
    "COMPOUND": "Cc1ccsc1C(=CCCN1CCC[C@@H](C(=O)O)C1)c1sccc1C [Tiagabine]",
    "viability at 10 µM [%]": 92.7
  },
  {
    "COMPOUND": "N#Cc1ccc(C(c2ccc(C#N)cc2)n2cncn2)cc1 [letrozole]",
    "viability at 10 µM [%]": 101
  },
  {
    "COMPOUND": "CCCN[C@H]1CCc2nc(N)sc2C1 [Pramipexole]",
    "viability at 10 µM [%]": 96
  },
  {
    "COMPOUND": "O=C1CC[C@@H](C(=O)N2CSC[C@H]2C(=O)O)N1 [Pidotimod] ([pGlu]-[Thz]-OH)",
    "viability at 10 µM [%]": 104
  },
  {
    "COMPOUND": "Nc1c2c(nc3ccccc13)CCCC2 [Tacrine]",
    "viability at 10 µM [%]": 77.8
  },
  {
    "COMPOUND": "NC(N)=Nc1nc(CSCCC(N)=NS(N)(=O)=O)cs1 [Famotidine]",
    "viability at 10 µM [%]": 102
  },
  {
    "COMPOUND": "COC(=O)C1=C(C)NC(C)=C(C(=O)OC2CCCN(Cc3ccccc3)C2)C1c1cccc([N+](=O)[O-])c1 (centres unmarked) [Benidipine]",
    "viability at 10 µM [%]": 11.6
  },
  {
    "COMPOUND": "Cc1ncc2n1-c1ccc(Cl)cc1C(c1ccccc1F)=NC2 [Midazolam]",
    "viability at 10 µM [%]": 128
  }
]
